TEST DESCRIPTION: qHTS assay to identify small molecule antagonists of the retinoic acid receptor (RAR) signaling pathway (AID 1159552; note: nearly all actives have a fitted effect of over 50% in size)
TEST CONDITIONS: C3RL4 RARE luciferase reporter, retinol-stimulated, 6 h; series mostly up to 92.4 µM
Inconclusive results are not listed. Active and inactive are the calls of the source. Calls come from the whole dose curve; as a rule, active = well fitted inhibition curve with a large enough effect in the repeat runs; inconclusive = weak or mixed curves, or effect the other way; inactive = no such curve, though single readings can be large or run the other way.
Classes used: 1 for active, 0 for inactive

• [F][Sn]([c]1ccccc1)([c]1ccccc1)[c]1ccccc1 = 1
• Cc1cccc(Cc2cnc[nH]2)c1C = 0
• CCOC(=O)Cc1ccccc1 = 0
• CN(C)CCc1c[nH]c2ccccc12 = 0
• Cc1ccc([N+](=O)[O-])[c]2c1[O][Hg]2 = 1
• CSSC = 0
• O=[N+]([O-])C(Br)Br = 0
• Nc1ccc(N=Nc2ccccc2)cc1 = 0
• Nc1nc(N)c(N)c(N)n1 = 0
• N#CC(C#N)=NNc1cccc(Cl)c1 = 1
• O=C(Cl)c1ccccc1F = 0
• COCCC#N = 0
• CCC[CH2][Sn]([CH2]CCC)([CH2]CCC)[CH2]CCC = 1
• Oc1cccc(Cl)c1Cl = 0
• CC(C)=CCN1CC[C@@]2(C)c3cc(O)ccc3C[C@@H]1[C@@H]2C = 0
